experimental.system: Neutrophil elastase (Homo sapiens)
Sequence (P08246 whole entry): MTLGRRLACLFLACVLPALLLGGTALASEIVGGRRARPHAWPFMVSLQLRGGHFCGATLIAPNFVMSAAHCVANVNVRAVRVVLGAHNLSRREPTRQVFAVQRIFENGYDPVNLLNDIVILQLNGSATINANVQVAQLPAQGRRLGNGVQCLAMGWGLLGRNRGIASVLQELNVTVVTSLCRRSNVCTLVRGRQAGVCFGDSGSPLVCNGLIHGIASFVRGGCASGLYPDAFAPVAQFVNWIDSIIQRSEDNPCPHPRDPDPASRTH
test.name: Inhibition of human neutrophil elastase by enzymatic assay
pIC50: −log10 of the molar value.
readout.name: pIC50

1) O=C(N[C@H](Cc1ccccc1)C(=O)O)c1ccccc1/N=N/c1c(O)ccc2ccccc12 : 4.68
2) COC(=O)[C@H](NC(=O)c1ccccc1/N=C/c1c(O)ccc2ccccc12)c1ccccc1 : 4.41

A = O=C(N[C@@H](C(=O)O)c1ccccc1)c1ccccc1/N=N/c1c(O)ccc2ccccc12
B = O=C(N[C@H](C(=O)O)c1ccccc1)c1ncccc1/N=N/c1c(O)ccc2ccccc12
Problem: API: POST /compare with A and B ; response names the item with higher pIC50. Respond using the label that marks the chosen record.
Result: B

Where do the numbers come from? From ChEMBL document CHEMBL5584205.
